TARGET SYSTEM: HPK1 (Homo sapiens)
Sequence (Q92918 1-346 limits assumed): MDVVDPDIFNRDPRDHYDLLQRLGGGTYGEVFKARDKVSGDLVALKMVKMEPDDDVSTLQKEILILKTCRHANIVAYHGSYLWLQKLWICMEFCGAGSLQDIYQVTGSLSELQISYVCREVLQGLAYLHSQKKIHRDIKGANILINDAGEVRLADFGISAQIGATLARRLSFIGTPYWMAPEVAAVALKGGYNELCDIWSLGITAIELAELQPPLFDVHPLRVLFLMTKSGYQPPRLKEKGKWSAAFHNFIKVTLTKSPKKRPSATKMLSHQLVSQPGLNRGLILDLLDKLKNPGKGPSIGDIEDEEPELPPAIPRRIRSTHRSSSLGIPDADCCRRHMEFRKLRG
ASSAY METHOD TEXT: HPK1 kinase activity assay (ADP-Glo)
CONDITION LABEL: HPK1 Kinase activity IC50 (nM), 1 nM HPK1, 10 μM ATP, 0.1 μg/μL MBP
Values of IC50 strictly less than 0.6 nM map to 1.0, and values of at least 0.6 nM map to 0.0.

Cc1c[nH]c2ncc(-c3cc4c(c([C@@H]5CCCN5)c3)CN(C(=O)c3cnn(CC(F)F)c3)CC4)cc12 [Compound Z306]; 0.0

Answer whether the molecule Cc1cc(N2CCc3cc(-c4cnc5[nH]cc(C)c5c4)cc([C@@H]4CCCN4)c3C2)cc(C)n1 [Compound Z343] has IC50 strictly less than 0.6 nM
1.0

Numbers sourced from patent US20240182465A1.
